Provide the recorded fold induction at 0.01 µM for the entries that follow.
# Test system: HIV-1 expression in PBMC cultures from HIV-1 infected donors on cART
# experimental details: Induced HIV-1 expression in PBMC cultures from HIV-1 infected donors on cART (Example 208)
# Type: cell-based, human
# recorded conditions: Human immunodeficiency virus 1, PBMC, read-out: Fold HIV-1 Induction, Geometric Mean, 0.01 μM; donors 152-155; Tables 7-11
Numbers only.

Would you please look over these solved cases?
### Prompt Which fold induction at 0.01 µM reading was recorded for the molecule COCCOc1nc(N)c2nc(O)n(Cc3ccccc3)c2n1 [Example 122, reference compound] ?
### Response 5

### Prompt Which fold induction at 0.01 µM reading was recorded for the molecule CCCCOc1nc(N)c2c(n1)N(Cc1cccc(CN3CCCC3)c1)CC(=O)N2 ?
### Response 4

### Prompt Which fold induction at 0.01 µM reading was recorded for the molecule COCCOc1cc2c([nH]c(=O)n2Cc2ccc(-c3ccc(CN4CCCC4)cc3)cc2)c(N)n1 ?
### Response 3.9

### Prompt Which fold induction at 0.01 µM reading was recorded for the molecule CCCCOc1nc(N)c2c(n1)N(Cc1ccc(CN3CCCC3)cc1)CC(=O)N2 ?
### Response 4.3

Further cases:
### Prompt Which fold induction at 0.01 µM reading was recorded for the molecule CCOCc1nc2c(N)nc3ccccc3c2n1CC(C)(C)O [resiquimod, reference compound] ?
### Response 5

* * *

# Test system: HIV-1BaL
# experimental details: Antiviral activity on in vitro HIV-1 infected PBMC cultures, Gag p24 ELISA (Example 209)
# Format: cell-based
# recorded conditions: Human immunodeficiency virus 1, 144 h; PHA-stimulated human PBMC infected with HIV-1BaL, six days with IL-2, Gag p24; mean ± SD from at least 8 independent donors; read-out: Mean EC50
Provide the recorded EC50 for the entries that follow.
Numbers only, in nM.

### Prompt Which EC50 reading was recorded for the compound CCCCOc1nc(N)c2c(n1)N(Cc1cccc(CN3CCCC3)c1)CC(=O)N2 [Example 49] ?
### Response 170

Kindly review the next compound as well.
### Prompt Which EC50 reading was recorded for the compound CCCCOc1nc(N)c2c(n1)N(Cc1ccc(CN3CCCC3)cc1)CC(=O)N2 [Example 4] ?
### Response 33

* * *

# System: HIV-1 expression in PBMC cultures from HIV-1 infected donors on cART
# experimental details: Induced HIV-1 expression in PBMC cultures from HIV-1 infected donors on cART (Example 208)
# Type: cell-based, human
# recorded conditions: Human immunodeficiency virus 1, PBMC, read-out: Fold HIV-1 Induction, Geometric Mean, 0.01 μM; donors 152-155; Tables 7-11
Provide the recorded fold induction at 0.01 µM for the entries that follow.
One number for each entry.

### Prompt Which fold induction at 0.01 µM reading was recorded for the molecule Nc1nc(=O)c2sc(=O)n([C@@H]3O[C@H](CO)C[C@H]3O)c2[nH]1 [Example 124, reference compound] ?
### Response 3.7

### Prompt Which fold induction at 0.01 µM reading was recorded for the molecule CC(C)Cn1cnc2c(N)nc3ccccc3c21 [imiquimod, reference compound] ?
### Response 4.3

### Prompt Which fold induction at 0.01 µM reading was recorded for the molecule CCc1nc2c(N)nc3ccccc3c2n1CCCCNS(C)(=O)=O [Example 123, reference compound] ?
### Response 1.9

Further cases:
### Prompt Which fold induction at 0.01 µM reading was recorded for the molecule COCCOc1nc(N)c2[nH]c(=O)n(Cc3ccc(-c4ccc(CN5CCCC5)cc4)cc3)c2c1Cl [Example 121] ?
### Response 1.3

Measured values drawn from patent US11116774B2 for this set.
